// provenance: patent US5914236A

The compounds listed here are annotated with their pKi.
ASSAY SYSTEM: PCT-65 receptor (Rattus norvegicus)
Construct: expressed in transfected cells; host or cells: COS-7 cells (transient, calcium phosphate, pSRα-65)
Sequence (P32305 45-448): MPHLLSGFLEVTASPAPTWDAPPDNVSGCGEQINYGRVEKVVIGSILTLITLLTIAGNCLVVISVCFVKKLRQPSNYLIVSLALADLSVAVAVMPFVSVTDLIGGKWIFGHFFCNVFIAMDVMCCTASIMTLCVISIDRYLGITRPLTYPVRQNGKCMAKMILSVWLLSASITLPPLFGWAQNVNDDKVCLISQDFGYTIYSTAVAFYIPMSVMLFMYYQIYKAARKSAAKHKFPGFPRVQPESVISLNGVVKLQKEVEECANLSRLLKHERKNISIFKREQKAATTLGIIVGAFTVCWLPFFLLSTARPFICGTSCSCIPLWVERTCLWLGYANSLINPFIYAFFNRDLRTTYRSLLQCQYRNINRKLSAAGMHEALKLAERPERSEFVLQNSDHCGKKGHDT
PROCEDURE TEXT: [3H]-5-HT competition binding to PCT-65 receptor in membranes of transfected COS-7 cells
TEST PARAMETERS: competing with [3H]-5-HT (1 nM), COS-7 membranes, 37 °C; geometric mean ± SEM (n=3)
pKi: −log10 of the molar value.
ASSAY METRIC: pKi

>>> result_value("O=C(c1ccc(F)cc1)C1CCN(CCn2c(=O)[nH]c3ccccc3c2=O)CC1")
6.58
>>> result_value("Cc1nc2sccn2c(=O)c1CCN1CCC(=C(c2ccc(F)cc2)c2ccc(F)cc2)CC1")
7.82
>>> result_value("CCCN1C[C@H](CSC)C[C@@H]2c3cccc4[nH]cc(c34)C[C@H]21 [Pergolide]")
9.00
>>> result_value("CC(C)C[C@H]1C(=O)N2CCC[C@H]2[C@]2(O)O[C@](NC(=O)[C@@H]3C=C4c5cccc6[nH]c(Br)c(c56)C[C@H]4N(C)C3)(C(C)C)C(=O)N12")
7.31
>>> result_value("NCCc1c[nH]c2ccccc12")
7.78
>>> result_value("CCCN(CCC)C1CCc2cccc(O)c2C1 (centres unmarked)")
7.46
>>> result_value("CN1C[C@H](CNC(=O)OCc2ccccc2)C[C@@H]2c3cccc4c3c(cn4C)C[C@H]21")
8.21
>>> result_value("COc1ccc2[nH]cc(CCN(C)C)c2c1")
8.08
